B1: Gamma-crystallin C, residues 91 to 170; numbered along this chain, P07315 (parent)
chain: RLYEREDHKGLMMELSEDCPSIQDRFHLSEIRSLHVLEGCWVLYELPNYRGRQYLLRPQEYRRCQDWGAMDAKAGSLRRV

# Variants of: B1
# assay.info: abundance fitness (aPCA) (normalised: wild type 0, dead -1); higher = more abundant; growth selection in yeast, the domain comes from the species named
# assay.context: Homo sapiens
experimental.readout: abundance fitness

Name the recorded abundance fitness for D66V .
-0.749

Would you kindly repeat that for E45K ?
-0.465

Would you kindly repeat that for H35N ?
-0.09

Would you kindly repeat that for D18A ?
-0.462

Would you kindly repeat that for Q53L ?
-0.78

Would you kindly repeat that for H27F ?
-0.414

Would you kindly repeat that for G75V ?
-0.815

Would you kindly repeat that for C19E ?
-0.369

Would you kindly repeat that for K9A ?
-0.129

Would you kindly repeat that for C40R ?
-0.138

Would you kindly repeat that for M13H ?
-0.283

Would you kindly repeat that for E60W ?
-0.206

Would you kindly repeat that for Y3R ?
-0.846

Would you kindly repeat that for Q23F ?
-0.093

Would you kindly repeat that for H35C ?
-0.206

Would you kindly repeat that for F26I ?
-0.553

Would you kindly repeat that for L46W ?
-0.237

Would you kindly repeat that for C19M ?
-0.761

Would you kindly repeat that for W67S ?
-0.778

Would you kindly repeat that for F26A ?
-0.564

Would you kindly repeat that for M70L ?
-0.063

Would you kindly repeat that for V36Y ?
-0.947

Would you kindly repeat that for K9M ?
0.212

Would you kindly repeat that for E17S ?
-0.155

Would you kindly repeat that for L56R ?
-0.836

Would you kindly repeat that for R50T ?
-0.002

Would you kindly repeat that for P20M ?
-0.684

Would you kindly repeat that for Y61P ?
-1.07

Would you kindly repeat that for W67L ?
-0.951

Would you kindly repeat that for Y3A ?
-0.771

Would you kindly repeat that for R57I ?
-0.566

Would you kindly repeat that for P58F ?
-0.882

Would you kindly repeat that for P20S ?
-0.292

Would you kindly repeat that for W67P ?
-0.935

Would you kindly repeat that for K9E ?
0.017

Would you kindly repeat that for L28M ?
-0.038

Would you kindly repeat that for R62G ?
-0.237

Would you kindly repeat that for Y61S ?
-0.936

Would you kindly repeat that for G75S ?
-0.479

Would you kindly repeat that for L43N ?
-0.673

Would you kindly repeat that for R1T ?
-0.314

Would you kindly repeat that for C19P ?
-0.902

Would you kindly repeat that for Y44W ?
-0.599

Would you kindly repeat that for L37M ?
-0.158

Would you kindly repeat that for G10T ?
-1.01

Would you kindly repeat that for R79S ?
-0.202

Would you kindly repeat that for E38M ?
-0.222

Would you kindly repeat that for L28K ?
-0.022

Would you kindly repeat that for A74D ?
-0.749

Would you kindly repeat that for L28G ?
-0.364

Would you kindly repeat that for G68Q ?
-0.763

Would you kindly repeat that for L77T ?
-0.626

Would you kindly repeat that for S33V ?
-1.01

Would you kindly repeat that for C40I ?
-0.222

Would you kindly repeat that for P20L ?
-0.613

Would you kindly repeat that for L34T ?
-0.848

Would you kindly repeat that for A72F ?
-0.5

Would you kindly repeat that for M13W ?
-0.018

Would you kindly repeat that for R25A ?
-0.086

Would you kindly repeat that for K73P ?
-0.628

Would you kindly repeat that for W67C ?
-0.703

Would you kindly repeat that for P20H ?
0.061

Would you kindly repeat that for R57S ?
0.018

Would you kindly repeat that for R5W ?
-0.203

Would you kindly repeat that for Q23E ?
0

Would you kindly repeat that for E4K ?
-0.375

Would you kindly repeat that for Q23C ?
-0.187

Would you kindly repeat that for S29R ?
-0.043

Would you kindly repeat that for D7A ?
-0.248

Would you kindly repeat that for Q53F ?
-0.425

Would you kindly repeat that for R63M ?
-0.32

Would you kindly repeat that for E60S ?
-0.018

Would you kindly repeat that for P20Y ?
-0.996

Would you kindly repeat that for E14P ?
-0.269

Would you kindly repeat that for Y49V ?
-0.969

Would you kindly repeat that for E60M ?
-0.162

Would you kindly repeat that for Y44V ?
-0.784

Would you kindly repeat that for E38G ?
-0.186

Would you kindly repeat that for H27K ?
-0.137

Would you kindly repeat that for E17G ?
-0.132

Would you kindly repeat that for D18R ?
-0.938

Would you kindly repeat that for E38H ?
-0.119

Would you kindly repeat that for K73A ?
-0.069

Would you kindly repeat that for P20N ?
-0.152

Would you kindly repeat that for D24W ?
-0.516

Would you kindly repeat that for L56M ?
-0.553

Would you kindly repeat that for A72T ?
-0.207

Would you kindly repeat that for C19F ?
-0.969

Would you kindly repeat that for L46R ?
-0.146

Would you kindly repeat that for L46C ?
-0.075

Would you kindly repeat that for Y54L ?
-0.727
